- target: T1, SRSF1 RS (human, UniProt Q07955 199-248)
- T1 chain: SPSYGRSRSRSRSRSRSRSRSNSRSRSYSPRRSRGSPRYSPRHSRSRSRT
- testName: FP; FP, 10 nM RNA, 37 C 30 min then 25 C 10 min; 21-mers: 25 mM KCl, 0.25 M Arg/Glu, 20 mM Tris-HCl pH 7.5, 0.1 mM EDTA, 0.1 mM TCEP, 0.02% Tween 20; 8-mers: 35 mM
- cond: protein: recombinant; tags: none (SUMO cleaved); label: 5' fluorescein; G-quadruplex (parallel)
assayEndpoint: Kd (nM)
One number for each entry, in nM.

For GGGGGCUGGGCGGGGACCGGG (structured_RNA) [ARPC2 GQ] , what is its reported Kd?
250
